# credit: patent US20230338360A1

Target: Src (Homo sapiens)
Sequence (P12931 whole entry, species assumed): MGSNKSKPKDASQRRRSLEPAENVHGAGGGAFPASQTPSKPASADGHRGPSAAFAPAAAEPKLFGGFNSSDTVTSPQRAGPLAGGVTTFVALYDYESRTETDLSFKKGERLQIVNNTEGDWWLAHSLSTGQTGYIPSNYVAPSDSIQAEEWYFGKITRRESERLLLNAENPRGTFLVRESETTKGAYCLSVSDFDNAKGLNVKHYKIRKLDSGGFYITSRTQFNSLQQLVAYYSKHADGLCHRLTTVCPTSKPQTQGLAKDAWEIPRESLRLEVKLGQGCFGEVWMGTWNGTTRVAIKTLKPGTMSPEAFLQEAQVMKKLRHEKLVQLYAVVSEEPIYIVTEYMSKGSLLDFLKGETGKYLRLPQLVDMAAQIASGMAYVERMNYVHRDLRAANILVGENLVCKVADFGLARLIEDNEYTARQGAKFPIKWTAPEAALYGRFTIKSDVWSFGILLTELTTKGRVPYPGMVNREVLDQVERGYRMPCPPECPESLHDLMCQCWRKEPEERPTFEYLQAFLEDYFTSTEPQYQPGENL
QUANTITY_MEASURED: IC50 (µM)
Give bare numbers, in µM.

Entry CC1(COc2ccc3c(c2)ncn3-c2ccc3cccc(N4CCC(N)CC4)c3n2)COC1 [Crenolanib Besylate] ; IC50 = 4.98

---

Molecular target: ABL1-phosphorylated (Homo sapiens, UniProt P00519)
QUANTITY_MEASURED: pKd
Give bare numbers, as −log10 of the molar value.

Entry CC1(COc2ccc3c(c2)ncn3-c2ccc3cccc(N4CCC(N)CC4)c3n2)COC1 [Crenolanib Besylate] ; pKd = 7.06

---

Target: TIE-2 (Homo sapiens, UniProt Q02763)
Sequence (Q02763 23-1124, species assumed): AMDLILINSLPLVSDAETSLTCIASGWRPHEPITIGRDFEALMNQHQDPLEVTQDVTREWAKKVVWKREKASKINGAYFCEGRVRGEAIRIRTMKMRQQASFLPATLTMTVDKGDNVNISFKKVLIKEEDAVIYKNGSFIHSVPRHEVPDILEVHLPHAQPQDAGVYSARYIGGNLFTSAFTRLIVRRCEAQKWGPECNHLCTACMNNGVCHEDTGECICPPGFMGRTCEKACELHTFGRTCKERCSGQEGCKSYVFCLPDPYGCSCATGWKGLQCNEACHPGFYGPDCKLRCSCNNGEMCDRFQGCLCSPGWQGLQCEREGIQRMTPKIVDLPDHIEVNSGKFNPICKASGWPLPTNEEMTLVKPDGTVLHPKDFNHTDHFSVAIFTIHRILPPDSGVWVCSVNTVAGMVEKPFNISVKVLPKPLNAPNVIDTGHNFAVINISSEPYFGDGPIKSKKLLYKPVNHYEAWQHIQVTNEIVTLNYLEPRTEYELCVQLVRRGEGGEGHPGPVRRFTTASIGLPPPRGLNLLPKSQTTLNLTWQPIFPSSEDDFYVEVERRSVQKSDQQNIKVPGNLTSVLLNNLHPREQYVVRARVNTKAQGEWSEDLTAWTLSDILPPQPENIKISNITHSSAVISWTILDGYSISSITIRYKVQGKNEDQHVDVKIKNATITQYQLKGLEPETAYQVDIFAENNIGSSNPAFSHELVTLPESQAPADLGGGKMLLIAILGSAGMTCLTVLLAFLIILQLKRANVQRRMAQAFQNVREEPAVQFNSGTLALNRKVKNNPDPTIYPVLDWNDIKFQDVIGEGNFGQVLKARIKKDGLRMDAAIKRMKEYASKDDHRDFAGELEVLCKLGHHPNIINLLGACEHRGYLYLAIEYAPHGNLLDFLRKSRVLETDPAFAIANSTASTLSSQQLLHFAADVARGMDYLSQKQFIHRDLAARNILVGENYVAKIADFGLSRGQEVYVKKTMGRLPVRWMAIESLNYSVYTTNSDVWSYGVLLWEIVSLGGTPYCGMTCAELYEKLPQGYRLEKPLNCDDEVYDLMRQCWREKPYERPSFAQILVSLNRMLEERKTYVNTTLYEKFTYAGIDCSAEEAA
pIC50: −log10 of the molar value.
QUANTITY_MEASURED: pIC50

Entry CC1(COc2ccc3c(c2)ncn3-c2ccc3cccc(N4CCC(N)CC4)c3n2)COC1 [Crenolanib Besylate] ; pIC50 = < 5.29

---

Biological target: ABL1(T315I) nonphosphorylated (Homo sapiens, UniProt P00519, T315I)
QUANTITY_MEASURED: Kd (µM)
Numbers only, in µM.

Lab entry: ABL1(T315I) nonphosphorylated (Homo sapiens, UniProt P00519, T315I) assay, molecule CC1(COc2ccc3c(c2)ncn3-c2ccc3cccc(N4CCC(N)CC4)c3n2)COC1 [Crenolanib Besylate] , Kd = 12

---

Molecular target: FGFR-2 (Homo sapiens)
Sequence (P21802 22-821, species assumed): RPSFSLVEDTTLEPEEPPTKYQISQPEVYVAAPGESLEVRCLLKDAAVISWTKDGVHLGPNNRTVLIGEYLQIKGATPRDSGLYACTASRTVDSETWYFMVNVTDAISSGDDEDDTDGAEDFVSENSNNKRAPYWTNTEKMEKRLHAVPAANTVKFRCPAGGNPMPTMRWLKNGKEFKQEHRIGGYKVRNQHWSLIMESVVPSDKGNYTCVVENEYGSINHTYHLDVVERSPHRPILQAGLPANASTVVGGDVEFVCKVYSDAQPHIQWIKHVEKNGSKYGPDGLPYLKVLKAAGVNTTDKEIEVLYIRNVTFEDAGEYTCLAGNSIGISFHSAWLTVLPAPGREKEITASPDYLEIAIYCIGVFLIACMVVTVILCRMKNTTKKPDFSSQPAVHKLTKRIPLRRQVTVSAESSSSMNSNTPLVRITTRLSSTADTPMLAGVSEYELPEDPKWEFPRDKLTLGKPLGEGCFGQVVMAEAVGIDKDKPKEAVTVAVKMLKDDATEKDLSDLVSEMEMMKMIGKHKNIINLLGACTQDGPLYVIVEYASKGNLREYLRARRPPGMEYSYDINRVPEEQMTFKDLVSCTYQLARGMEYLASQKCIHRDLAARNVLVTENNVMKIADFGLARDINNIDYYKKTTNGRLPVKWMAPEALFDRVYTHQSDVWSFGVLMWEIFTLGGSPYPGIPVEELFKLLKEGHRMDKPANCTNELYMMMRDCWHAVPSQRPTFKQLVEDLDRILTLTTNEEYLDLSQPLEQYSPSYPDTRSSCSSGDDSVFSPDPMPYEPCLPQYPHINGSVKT
QUANTITY_MEASURED: IC50

Entry CC1(COc2ccc3c(c2)ncn3-c2ccc3cccc(N4CCC(N)CC4)c3n2)COC1 [Crenolanib Besylate] ; IC50 = > 5.07 µM

---

Target: EGFR (Homo sapiens, UniProt P00533)
Sequence (P00533 25-1210, species assumed): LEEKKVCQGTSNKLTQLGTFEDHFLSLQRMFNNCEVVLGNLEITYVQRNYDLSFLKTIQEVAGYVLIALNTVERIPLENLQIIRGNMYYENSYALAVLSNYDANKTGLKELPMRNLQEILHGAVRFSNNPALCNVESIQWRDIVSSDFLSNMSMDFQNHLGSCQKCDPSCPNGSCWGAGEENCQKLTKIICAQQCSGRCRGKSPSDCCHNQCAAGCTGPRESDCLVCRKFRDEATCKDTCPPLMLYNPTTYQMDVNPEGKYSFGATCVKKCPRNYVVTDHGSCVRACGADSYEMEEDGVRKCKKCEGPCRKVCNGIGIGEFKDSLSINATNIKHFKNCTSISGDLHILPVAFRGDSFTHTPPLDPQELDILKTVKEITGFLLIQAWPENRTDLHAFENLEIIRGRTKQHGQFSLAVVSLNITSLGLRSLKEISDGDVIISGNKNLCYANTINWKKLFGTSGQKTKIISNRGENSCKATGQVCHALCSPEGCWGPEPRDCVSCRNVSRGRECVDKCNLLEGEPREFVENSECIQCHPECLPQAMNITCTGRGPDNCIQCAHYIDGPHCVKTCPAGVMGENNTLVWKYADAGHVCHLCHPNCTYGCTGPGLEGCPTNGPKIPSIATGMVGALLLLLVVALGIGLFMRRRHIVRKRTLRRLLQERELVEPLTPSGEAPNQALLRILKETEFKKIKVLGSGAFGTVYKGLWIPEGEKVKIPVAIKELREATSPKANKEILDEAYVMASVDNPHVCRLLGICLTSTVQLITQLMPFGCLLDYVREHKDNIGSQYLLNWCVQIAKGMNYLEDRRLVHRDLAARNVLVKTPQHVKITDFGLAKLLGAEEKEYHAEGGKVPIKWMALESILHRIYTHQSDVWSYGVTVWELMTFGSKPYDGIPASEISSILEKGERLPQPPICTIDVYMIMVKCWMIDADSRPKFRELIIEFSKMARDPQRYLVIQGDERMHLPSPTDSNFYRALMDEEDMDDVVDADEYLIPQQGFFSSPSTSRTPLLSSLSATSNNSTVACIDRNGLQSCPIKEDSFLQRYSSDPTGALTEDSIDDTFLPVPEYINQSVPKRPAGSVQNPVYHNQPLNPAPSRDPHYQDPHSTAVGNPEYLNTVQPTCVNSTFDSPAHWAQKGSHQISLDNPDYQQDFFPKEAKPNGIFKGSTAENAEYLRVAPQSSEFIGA
QUANTITY_MEASURED: IC50

Lab entry: EGFR (Homo sapiens, UniProt P00533) assay, compound CC1(COc2ccc3c(c2)ncn3-c2ccc3cccc(N4CCC(N)CC4)c3n2)COC1 [Crenolanib Besylate] , IC50 = > 10 µM

---

Target: ABL1(T315I) phosphorylated (Homo sapiens, UniProt P00519, T315I)
QUANTITY_MEASURED: Kd (µM)
Numbers only, in µM.

Entry CC1(COc2ccc3c(c2)ncn3-c2ccc3cccc(N4CCC(N)CC4)c3n2)COC1 [Crenolanib Besylate] ; Kd = 0.76
